Origin of values: ChEMBL document CHEMBL1811836

# Experimental system: Delta-type opioid receptor (Homo sapiens)
# Sequence (P41143 whole entry): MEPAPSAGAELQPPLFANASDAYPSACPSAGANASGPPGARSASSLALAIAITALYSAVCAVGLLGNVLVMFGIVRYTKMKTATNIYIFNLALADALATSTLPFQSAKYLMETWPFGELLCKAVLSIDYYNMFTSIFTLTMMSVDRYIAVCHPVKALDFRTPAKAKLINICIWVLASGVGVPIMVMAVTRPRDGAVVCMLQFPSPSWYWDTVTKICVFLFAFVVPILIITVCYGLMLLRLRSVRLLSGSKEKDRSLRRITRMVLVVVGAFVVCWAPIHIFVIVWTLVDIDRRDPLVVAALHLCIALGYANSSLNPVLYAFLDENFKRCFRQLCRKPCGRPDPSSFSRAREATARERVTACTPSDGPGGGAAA
# Protocol text: Displacement of [3H]DADLE from human recombinant delta opioid receptor expressed in recombinant hDOR-CHO cells after 2 hrs by liquid scintillation counting
Property: pKi
Kindly note that pKi refers to -log10 of the concentration in mol/L and answer with the value alone.

Oc1cccc2c1O[C@@H]1CN(CCc3ccccc3)[C@@H]3CCC[C@]21C3 (relative stereo) = 5.91

Turning now to a further compound:
stdin: Please give the measured pKi for this compound: Oc1ccc2c(c1)[C@]13CCC[C@H](C1)N(CCc1ccccc1)C[C@H]3O2 (relative stereo)
stdout: 5.90

----------
Items are presented alongside their recorded Ki.
# Experimental system: Kappa-type opioid receptor (Homo sapiens)
# Sequence (P41145 whole entry): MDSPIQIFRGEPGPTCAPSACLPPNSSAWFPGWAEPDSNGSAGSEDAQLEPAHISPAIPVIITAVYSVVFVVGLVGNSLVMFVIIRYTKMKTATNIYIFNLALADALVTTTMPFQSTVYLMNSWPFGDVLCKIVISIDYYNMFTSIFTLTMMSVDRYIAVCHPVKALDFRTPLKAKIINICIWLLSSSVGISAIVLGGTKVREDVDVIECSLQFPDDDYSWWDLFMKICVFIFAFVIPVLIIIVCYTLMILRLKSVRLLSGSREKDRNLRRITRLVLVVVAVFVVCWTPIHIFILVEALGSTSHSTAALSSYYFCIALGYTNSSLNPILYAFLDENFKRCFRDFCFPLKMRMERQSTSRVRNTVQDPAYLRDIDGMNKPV
# Protocol text: Displacement of [3H]U69,593 from human recombinant kappa opioid receptor expressed in CHO cells after 2 hrs by liquid scintillation counting

Oc1cccc2c1O[C@@H]1CN(CCc3ccccc3)[C@@H]3CCC[C@]21C3 (relative stereo) = 51 nM
Oc1ccc2c(c1)[C@]13CCC[C@H](C1)N(CCc1ccccc1)C[C@H]3O2 (relative stereo) = 1230 nM
CN1C[C@H]2Oc3ccc(O)cc3[C@@]23CCC[C@@H]1C3 (relative stereo) = 1080 nM

From here, focus on the item given below.
stdin: Need Ki of CN1C[C@H]2Oc3c(O)cccc3[C@@]23CCC[C@@H]1C3 (relative stereo) , thanks.
stdout: > 40000 nM
